Data origin, for the record: PubChem BioAssay (NCI)

Test system: UO-31 renal
Assay: NCI-60 one-dose screen, 48 h (100 = growth as untreated, 0 = no growth, -100 = all killed)
Details: 10 µM unless noted
The panel holds about 83,000 compounds, 20% with a hit somewhere; the sample as a whole holds those more often.
Quick list: growth per entry.
Give the value in % but do not write % after it.

compound=Cc1ccccc1NC(=O)c1sc2nc(C)c(C(=O)/C=C/c3ccccc3)cc2c1N unit_tag=% test_result=19.7
compound="COC(C(=O)[C@@H](O)[C@@H](C)O)[C@@H]1Cc2cc3cc(O[C@H]4C[C@@H](O[C@H]5C[C@@H](O)[C@H](O)C(C)O5)[C@H](O)C(C)O4)c(C)c(O)c3c(O)c2C(=O)[C@H]1O[C@H]1C[C@@H](O[C@H]2C[C@@H](O[C@H]3C[C@@H](O)[C@H](OC)C(C)O3)[C@@H](O)C(C)O2)[C@H](O)C(C)O1 (some centres not stated)" unit_tag=% test_result=-8.18

Item: C[C@H](NC(=O)[C@@H](C)N)[C@H](Oc1ccc2c(cnn2-c2ccc(F)cc2)c1)c1ccc2c(c1)OCCO2 | System: UO-31 renal | growth: 18.5

UO-31 renal growth of CC[C@@H](C(=O)[C@@H](C)[C@@H](O)[C@H](C)[C@@H]1O[C@@H]([C@@H](CC)C(=O)NCCc2ccc(F)cc2)CC[C@@H]1C)C1O[C@]2(C=CC(=O)[C@]3(CC[C@@](C)([C@H]4CC[C@](O)(CC)[C@H](C)O4)O3)O2)[C@H](C)C[C@@H]1C (some centres not stated) is 19.2

Summary line: OB(O)c1cccc(-c2nc3ccc4[nH]ncc4c3c3c2CCCC3)c1 , UO-31 renal, reported growth = 35.1

Item CCCCCCCCCCCCCCCCCCOc1ccccc1CC(=O)NCC[N+]1(C)CCCC1 was tested on UO-31 renal; the reported growth is 85.1

Field growth (UO-31 renal), entry O=c1c2cc(-c3ccccc3)sc2nc2sc(-c3ccccc3)nn12 : 94.2
